molecular target: epidermal growth factor acceptor-tyrosinekinase complex (Homo sapiens); construct: endogenous in cells; host or cells: A-431 (membrane specimen, not solubilized); experiment: Tyrosinekinase inhibitory activity (A-431 membrane specimen, EGF-stimulated, [γ-32P]ATP); assay type: biochemical, human (A-431 cell line derived from human cancerous cell); conditions: 10 μM; read-out: Inhibition rate (tyrosinekinase)
Sequence (P00533 25-1210): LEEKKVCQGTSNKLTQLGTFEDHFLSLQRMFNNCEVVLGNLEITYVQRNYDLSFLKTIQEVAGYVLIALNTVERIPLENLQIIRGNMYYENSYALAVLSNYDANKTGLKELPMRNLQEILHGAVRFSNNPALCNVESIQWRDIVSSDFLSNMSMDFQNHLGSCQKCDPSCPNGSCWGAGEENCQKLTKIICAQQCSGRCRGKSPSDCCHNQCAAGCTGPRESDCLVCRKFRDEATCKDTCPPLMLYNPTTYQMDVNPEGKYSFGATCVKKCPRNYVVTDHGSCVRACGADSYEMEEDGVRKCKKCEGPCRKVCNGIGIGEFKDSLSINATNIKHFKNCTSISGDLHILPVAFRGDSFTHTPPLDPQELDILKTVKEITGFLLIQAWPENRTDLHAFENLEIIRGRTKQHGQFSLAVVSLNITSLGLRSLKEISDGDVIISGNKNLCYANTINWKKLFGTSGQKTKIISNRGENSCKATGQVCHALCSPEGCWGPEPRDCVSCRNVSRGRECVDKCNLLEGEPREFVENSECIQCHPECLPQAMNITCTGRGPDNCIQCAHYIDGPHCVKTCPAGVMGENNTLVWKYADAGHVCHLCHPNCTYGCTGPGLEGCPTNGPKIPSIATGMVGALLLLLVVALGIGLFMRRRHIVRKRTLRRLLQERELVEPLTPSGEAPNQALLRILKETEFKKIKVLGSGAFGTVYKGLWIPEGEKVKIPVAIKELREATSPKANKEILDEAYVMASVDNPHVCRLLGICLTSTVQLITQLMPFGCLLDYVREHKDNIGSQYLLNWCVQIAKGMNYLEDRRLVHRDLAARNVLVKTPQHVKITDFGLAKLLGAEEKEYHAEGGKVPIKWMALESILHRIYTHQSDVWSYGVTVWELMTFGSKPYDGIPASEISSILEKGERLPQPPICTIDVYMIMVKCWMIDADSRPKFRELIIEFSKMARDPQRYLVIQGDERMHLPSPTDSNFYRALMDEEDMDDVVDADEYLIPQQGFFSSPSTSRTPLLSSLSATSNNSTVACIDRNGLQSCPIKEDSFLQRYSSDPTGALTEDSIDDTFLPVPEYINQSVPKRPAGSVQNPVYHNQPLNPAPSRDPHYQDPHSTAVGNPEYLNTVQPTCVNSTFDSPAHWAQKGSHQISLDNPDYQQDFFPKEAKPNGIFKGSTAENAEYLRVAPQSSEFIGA
Sequence (P01132 977-1029 partner limits assumed): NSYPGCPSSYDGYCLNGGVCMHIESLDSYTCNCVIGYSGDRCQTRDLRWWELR
Recorded inhibition at 10 µM by entry

{"smiles.data": "O=C1NN(c2ccccc2)C(=O)C1=Cc1cc(O)c(O)c(CSc2ccccc2)c1", "display.unit": "%", "inhibition at 10 µM": 96}
{"smiles.data": "CCOc1cc(C=C(C#N)C(N)=O)cc(CSCCCc2ccccc2)c1O", "display.unit": "%", "inhibition at 10 µM": 55}
{"smiles.data": "CCOc1cc(C=C(C#N)C(N)=O)cc(CSc2ccc(Br)cc2)c1O", "display.unit": "%", "inhibition at 10 µM": 74}
{"smiles.data": "CCOc1cc(C=C(C#N)C(N)=O)cc(CSc2ccc(Cl)cc2)c1O", "display.unit": "%", "inhibition at 10 µM": 29}
{"smiles.data": "COc1cc(C=C2CCNC2=O)cc(CSc2ccc(C)cc2)c1O", "display.unit": "%", "inhibition at 10 µM": 55}
{"smiles.data": "CCOc1cc(C=C(C#N)C(N)=O)cc(CSc2ccccc2)c1OC", "display.unit": "%", "inhibition at 10 µM": 31}
{"smiles.data": "CCOc1cc(C=C2CCNC2=O)cc(CSc2ccc(OC)cc2)c1OC", "display.unit": "%", "inhibition at 10 µM": 30}
{"smiles.data": "CCOc1cc(C=C2CCOC2=O)cc(CSc2ccc(Cl)c(Cl)c2)c1O", "display.unit": "%", "inhibition at 10 µM": 27}
{"smiles.data": "CCOc1cc(C=C2CCOC2=O)cc(CSc2ccccc2)c1O", "display.unit": "%", "inhibition at 10 µM": 33}
{"smiles.data": "CCOc1cc(C=C(C#N)C(N)=O)cc(CSc2ccccc2)c1O", "display.unit": "%", "inhibition at 10 µM": 100}
{"smiles.data": "CCOc1cc(C=C(C#N)C(N)=O)cc(CSc2c(F)c(F)c(F)c(F)c2F)c1O", "display.unit": "%", "inhibition at 10 µM": 60}
{"smiles.data": "CCOc1cc(C=C(C#N)C(N)=O)cc(CSc2ccccc2)c1OC(=O)c1ccccc1", "display.unit": "%", "inhibition at 10 µM": 40}
{"smiles.data": "CCOc1cc(C=C(C#N)C(N)=O)cc(CSc2ccc(Cl)c(Cl)c2)c1O", "display.unit": "%", "inhibition at 10 µM": 69}
{"smiles.data": "CCOc1cc(C=C(C#N)C(N)=O)cc(CSc2cccc(OC)c2)c1O", "display.unit": "%", "inhibition at 10 µM": 72}
{"smiles.data": "CCOc1cc(C=C(C#N)C(N)=O)cc(CSc2ccccc2C(=O)OC)c1OC(C)=O", "display.unit": "%", "inhibition at 10 µM": 31}

The values you see were collected from patent US4853403A.
